Assay: Drug concentration in total liver in Wistar Han rat at 1 to 2 mg/kg, iv infused for 10 to 20 hrs by LC-MS/MS analysis
Settings: in vivo
Outcome label depends on Ct relative to 200 ng/mL: at/above gives true (1), below gives false (0).

| MOLECULAR STRING | QUALITATIVE LABEL |
| --- | --- |
| C[C@H]1COCCN1c1nc(-c2cnc(N)nc2)c2c(n1)N([C@@]1(C)CCN(C(=O)C(C)(C)N)C1)CC2 | false (0) |
| O=C(O)C(=O)Nc1ccc(NC(=O)[C@H](CC2CCCC2)n2cnc(C(F)(F)F)c2)nc1 | true (1) |
| O=C(NC1CC1)c1nc2cccnn2c1-c1ccc2ncnn2c1 | true (1) |
| Cc1ccc(NC(=O)c2cc(Oc3ccc(S(C)(=O)=O)cc3)c3c(c2)OC(C)(C)C3)nc1 | false (0) |
| Oc1noc2cc(Cl)c(Cl)cc12 | false (0) |
| CS(=O)(=O)c1cccc(C(=O)O)c1 | false (0) |
| CCCn1cnc(C[C@H](CCCN)C(=O)O)c1 | true (1) |
| O=C(NC(c1ccccc1)c1ccccc1)C1CC1 | true (1) |
| C[C@H](c1nc2cnc(N3CCC[C@@H](C(=O)N4CCCC4)C3)nc2[nH]1)n1cc(Cl)cn1 | true (1) |
| Cn1nc(C(=O)NCCN2CCOCC2)cc1-c1cc2ccccc2[nH]1 | true (1) |

Data origin: ChEMBL document CHEMBL4373746
